System: UACC-257 melanoma
procedure-text: NCI-60 one-dose screen, 48 h (100 = growth as untreated, 0 = no growth, -100 = all killed)
run-parameters: 10 µM unless noted
Procedure: Cells are grown in 96 well plates and exposed to the test compound for 48 hours. Compounds are tested at a single concentration, which is 10^-5 M for most compounds. The reported endpoint is percent growth (GI% or GIPRCNT), where numbers from 0 - 100% represent growth inhibition, and numbers from -100% - 0 represent cell death. For example, a value of 40 represents 60% growth inhibition. A value of 0 means no net growth occurred over the course of the experiment. […]
The panel holds about 83,000 compounds, 20% with a hit somewhere; the sample as a whole holds those more often.
Strictly below 60% in growth: True. Otherwise: False.

For orientation, consider the following solved cases.
N=c1c2cc(-c3ccccc3)oc2ncn1/N=C/c1ccc(Br)cc1 = False
CCOC(=O)c1c(Nc2ccccc2)nn2c(-c3ccc(Cl)cc3)ccnc12 = False
COc1c(N2CC3CCCNC3C2)c(F)cc2c(=O)c(C(=O)N/N=C/c3ccc(F)cc3)cn(C3CC3)c12 (configuration not stated) = False
COc1ccc(Cn2cc3c(c2-c2cc(OC)c(OC)c(OC)c2)CCc2c(CN4CCOCC4)noc2-3)cc1 = False

Input: Item "CN1CCN(Cc2ccc(NC(=O)c3cncc(C#Cc4cnn5cccnc45)c3)cc2C(F)(F)F)CC1" : growth beneath 60%, strictly?
Output: True

Input: Item "Nn1c(N/N=C/c2nc3ccccc3s2)n[nH]c1=S" : growth beneath 60%, strictly?
Output: False

Input: Item "CCOC(=O)c1c(Nc2ccccc2)nn2c(-c3ccccc3)ccnc12" : growth beneath 60%, strictly?
Output: False

----------
Tested on: A549/ATCC NSCLC
procedure-text: NCI-60 one-dose screen, 48 h (100 = growth as untreated, 0 = no growth, -100 = all killed)
run-parameters: 10 µM unless noted
The panel holds about 83,000 compounds, 20% with a hit somewhere; the sample as a whole holds those more often.
observed-property: growth (%)
Value expressed in %; do not type the unit.

CCCn1cnc2c(c1=N)C(c1ccc(Cl)cc1)c1sc3c(C)cccc3c1O2 (stereo not given) = 29.1
COc1ccc(-c2nc3cc(Cl)c(Cl)cc3n2CC(=O)N=Nc2c(O)[nH]c3ccc(OC)cc23)cc1 = 59.8
Clc1nc2ccccc2nc1-c1nnc(C2CCCCC2)o1 = 98.4
CC(=O)N(C)C1CCc2c(sc(NC(=O)c3ccc(C(C)(C)C)cc3)c2C(N)=O)C1 (stereo not given) = 39.8

Continue with the molecule presented below.
Input: Which value of growth has been reported for "COc1ccccc1-n1cc(C#N)c(N)c1C(=O)c1ccc(Cl)cc1" in the records?
Output: 94.6

----------
The following compounds are shown together with reported growth values.
System: OVCAR-3 ovarian
procedure-text: NCI-60 one-dose screen, 48 h (100 = growth as untreated, 0 = no growth, -100 = all killed)
run-parameters: 10 µM unless noted
About 83,000 compounds went through this panel and 20% of them were active in at least one assay; those are over-represented in the sample as a whole.
Value expressed in %; do not type the unit.

Worked examples follow.
CC(=O)Nc1cccc(Nc2nc(N[C@@H](C)c3ccccc3)c3ccccc3n2)c1 = 13
CCO/C=N/C1=C(C#N)C(c2ccc(Cl)cc2)c2sc3c(CC)cccc3c2O1 (stereo not given) = -20.5
CNC(=O)c1cc(-c2ccc(NC(=S)Nc3cc(C(F)(F)F)cc(C(F)(F)F)c3)cc2)nc2cccnc12 = 106
NC(N)=Nc1ccc(Oc2cccc(Nc3ccc(Cl)cc3)c2)cn1 = -14.3

Continue with the compound presented below.
Input: Which value of growth has been reported for "C=CCn1c(-c2nc3ccc(C(=C(C#N)C#N)c4ccccc4)cc3[nH]2)cc2cc(Br)ccc21" in the records?
Output: 51.2

----------
Tested on: MALME-3M melanoma
procedure-text: NCI-60 one-dose screen, 48 h
run-parameters: 10 µM unless noted
Experimental: Cells are grown in 96 well plates and exposed to the test compound for 48 hours. Compounds are tested at a single concentration, which is 10^-5 M for most compounds. The reported endpoint is percent growth (GI% or GIPRCNT), where numbers from 0 - 100% represent growth inhibition, and numbers from -100% - 0 represent cell death. For example, a value of 40 represents 60% growth inhibition. A value of 0 means no net growth occurred over the course of the experiment. […]
The panel holds about 83,000 compounds, 20% with a hit somewhere; the sample as a whole holds those more often. Calls of active or inactive are those of the source. The calls were made as follows: active = growth percent below 10; inactive = the rest.
Hello, when you answer, please use one of the following outcomes: 1.0 (active), 0.0 (inactive)

For orientation, consider the following solved cases.
N=c1c2cc(-c3ccccc3)oc2ncn1/N=C/c1ccc(Cl)cc1 = 0.0
CCNC(=O)N1CCc2cc(OC)c(OCCc3ccc(OC)nc3)cc2C1c1ccc(C)cc1C (configuration not stated) = 0.0
N#Cc1cccc(CN2CCC3=C(C2)C(=O)N(Cc2ccc(Cl)cc2)C2=NCCN23)c1 = 0.0
CNC(=O)c1cc(-c2ccc(NC(=S)Nc3cc(C(F)(F)F)cc(C(F)(F)F)c3)cc2)nc2cccnc12 = 0.0
O=C1Nc2ccccc2/C1=C/c1ccc(COCC2CO2)n1-c1ccc(O)cc1 (configuration not stated) = 0.0

Input: Which outcome was assigned to "O=C(Nc1nc2ccc([N+](=O)[O-])cc2s1)Nc1ccccc1Cl" in this test?
Output: 0.0

----------
System: SK-OV-3 ovarian
procedure-text: NCI-60 one-dose screen, 48 h (100 = growth as untreated, 0 = no growth, -100 = all killed)
run-parameters: 10 µM unless noted
This is part of a sample that, as a whole, favours compounds with a hit. Of some 83,000 tested, about 20% had one in any assay.
The following molecules are shown together with reported growth values.
Value expressed in %; do not type the unit.

Worked examples follow.
CC[C@H](CO)Nc1ccc2ncc(C#Cc3cncc(C(=O)Nc4ccc(CN5CCN(C)CC5)c(C(F)(F)F)c4)c3)n2n1 = -45.6
CC1=CC(=O)C2=C(C)CC(OC(=O)CCc3ccccc3)[C@@H]3[C@H](OC(=O)[C@@H]3C)[C@@H]12 (some centres undefined) = 91.6
Cc1ccc(C2=Nn3c(nnc3-c3ccccc3)SC2)cc1 = 24.7
CN1CCN(Cc2ccc(NC(=O)c3cncc(C#Cc4cnc5ccc(OCC(C)(C)O)nn45)c3)cc2C(F)(F)F)CC1 = -13.3
O=S(=O)(Nc1ccc2c(c1)OCO2)c1ccc(-c2cnc(C3CC3)o2)cc1 = 62.1
Cc1ccc(-c2cc3nc(C(Cl)Cl)nc(C)n3n2)cc1 = 84.2

Input: Which value of growth has been reported for "NC(=O)c1cccc(C#CCNC[C@H]2C[C@@H](n3ccc4c(Cl)ncnc43)[C@H](O)[C@@H]2O)c1" in the records?
Output: 105

Input: Which value of growth has been reported for "NC(=O)c1c(NC(=O)c2ccccc2C(F)(F)F)sc2c1CCC(=O)C2" in the records?
Output: 105

Input: Which value of growth has been reported for "Cc1cc(-c2ccc(Cl)cc2)n(Cc2nnc(SCC(=O)Nc3ccc(S(N)(=O)=O)cc3)n2-c2ccc([N+](=O)[O-])cc2)n1" in the records?
Output: 112

----------
The following compounds are shown together with reported growth values.
Tested on: HOP-62 NSCLC
procedure-text: NCI-60 one-dose screen, 48 h (100 = growth as untreated, 0 = no growth, -100 = all killed)
run-parameters: 10 µM unless noted
This is part of a sample that, as a whole, favours compounds with a hit. Of some 83,000 tested, about 20% had one in any assay.
Value expressed in %; do not type the unit.

Worked examples follow.
CCN(CC)c1ccc2c(c1)Oc1nc(N)c(C#N)c(N)c1C2Sc1ccc(C)cc1 (stereo unspecified) = -71
NC(=O)c1c(NC(=O)c2ccc(F)cc2F)sc2c1CCC(=O)C2 = 104
COC(=O)c1ccc(NC2=C/C(=N/S(=O)(=O)c3ccc(C(=O)O)cc3)c3ccccc3C2=O)cc1 = 88.2
COc1ccc(N2CCN(C3=C(Cl)C(=O)C(C)=C(C)C3=O)CC2)cc1 = 91.5
COc1c(N2CC3CCCNC3C2)c(F)cc2c(=O)c(C(=O)N/N=C/c3ccc(Br)cc3)cn(C3CC3)c12 (stereo unspecified) = 88.4

Input: Which value of growth has been reported for "O=c1[nH]c(Sc2sc3ccc(Cl)cc3c2CBr)nc(=S)[nH]1" in the records?
Output: 28.2

Input: Which value of growth has been reported for "CNC(=O)c1cc(-c2ccc(NC(=S)Nc3cc(C(F)(F)F)cc(C(F)(F)F)c3)cc2)nc2cccnc12" in the records?
Output: 79.2

Input: Which value of growth has been reported for "CN1CCN(Cc2ccc(NC(=O)c3cncc(C#Cc4cnc5ccc(OCC6(C)COC6)nn45)c3)cc2C(F)(F)F)CC1" in the records?
Output: -69.4

Input: Which value of growth has been reported for "O=C(CSc1nc2ccccc2c(=O)n1-c1ccc(Cl)cc1)N/N=C/c1ccc(N2CCCCC2)cc1" in the records?
Output: 18.4

Input: Which value of growth has been reported for CC(=O)N1N=C(c2cccc(-n3cccc3)c2)CC1c1cccc(F)c1 (stereo unspecified) in the records?
Output: 109

Input: Which value of growth has been reported for "Oc1[nH]c2ccccc2c1Nn1c(N=N/C=c2/ccc3c(c2)C=NN=3)n[nH]c1=S" in the records?
Output: 75.6

Input: Which value of growth has been reported for "CC(C)(C)c1ccc(CC(=O)Nc2sc3c(c2C(N)=O)CCC(=O)C3)cc1" in the records?
Output: 30.5

Input: Which value of growth has been reported for "Clc1nc2ccccc2nc1-c1nnc(C2CCCCC2)o1" in the records?
Output: 106

Input: Which value of growth has been reported for "CS(=O)(=O)Nc1cc(-c2ccc3ncc(C#N)c(NCc4ccccc4O)c3c2)cnc1Cl" in the records?
Output: 3.57

Input: Which value of growth has been reported for "C#CCOc1ccc(/C=N\Nc2nc(-c3ccc(C)cc3)cs2)cc1OC" in the records?
Output: 98.5

Input: Which value of growth has been reported for "CC(=O)c1ccc(Nc2nc(SCC(C)C)nc(-c3ccccc3)c2C#N)cc1" in the records?
Output: 25.9

Input: Which value of growth has been reported for "C#C[C@]1(O)CC[C@H]2[C@@H]3CC=C4c5sc(-c6ccc7c(c6)OCO7)nc5CC[C@]4(C)[C@H]3CC[C@@]21C" in the records?
Output: 11.2

Input: Which value of growth has been reported for "NS(=O)(=O)c1ccc(-n2cc(CN3CCCCC3)nn2)cc1" in the records?
Output: 106

Input: Which value of growth has been reported for "Cc1cc(-c2ccc(Cl)cc2)n(Cc2nnc(SCC(=O)Nc3ccc(S(N)(=O)=O)cc3)n2-c2ccc([N+](=O)[O-])cc2)n1" in the records?
Output: 104

Input: Which value of growth has been reported for CCO/C=N/C1=C(C#N)C(c2ccc(F)cc2)c2sc3c(C)cccc3c2O1 (stereo unspecified) in the records?
Output: 28.3
